tgt: T1, SNTA1 PDZ (84–171) (human, UniProt Q13424 84-171)
T1 sequence: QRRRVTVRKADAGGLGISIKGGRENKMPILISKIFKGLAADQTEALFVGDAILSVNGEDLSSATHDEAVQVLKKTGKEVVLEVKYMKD
method notes: fluorescence polarisation
pKd: −log10 of the molar value. * marks the point of attachment. FITC = O=C1OC2(c3ccc(O)cc3Oc3cc(O)ccc32)c2ccc(NC(=S)*)cc21
recorded metric: pKd

Query :: So what's the measured pKd for this one? {FITC}-QNTDDVQTSF-OH [FITC-labeled C-terminal peptide of ACE2(796–805)]
Result :: < 4.00
